Tested on: transient receptor potential cation channel C4 beta (TRPC4), mouse
Test: TRPC4 cation channel opening, second retest – cell-based, second round, Fluo4, HEK293 TRPC4beta/mu-opioid, 1 µM, confirmation (AID 2461)
Details: Fluo4 calcium fluorescence, at 1 µM
Activity calls are given as the source filed them.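 The calls were made as follows: active = primary screen active and over 50% activation in each of two duplicate runs; inactive = the rest.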
Outcome field: choose from active, inactive

Consider the worked cases shown below.
# compound, label class
rows = [
    ("O=C(CN1CCCCC1)N=Nc1c(O)[nH]c2ccccc12", "inactive"),
    ("COc1ccc(C(CNc2ncnc3sc(C)c(C)c23)N(C)C)cc1 (centres undefined)", "active"),
    ("Cc1ccc(S(=O)(=O)Nc2ccc(N=Nc3ccc(O)cc3)cc2)cc1", "inactive"),
    ("O=C(CC1C(=O)NCCN1C(=O)Nc1ccccc1)Nc1cc(Cl)cc(Cl)c1 (centres undefined)", "inactive"),
    ("CCOC(=O)c1c(C)n(C)c2ccc(OCC(O)CNCCc3ccccc3)cc12 (centres undefined)", "inactive"),
]

Q. Please indicate how the test categorized CC(/C=C1\SC(=S)N(C(C(=O)O)C(C)C)C1=O)=C\c1ccccc1 (centres undefined) .
A. inactive

Q. Please indicate how the test categorized `CN1CCN(Cc2nc3c(c(=O)[nH]c(=O)n3C)n2Cc2c(F)cccc2Cl)CC1` .
A. active

Q. Please indicate how the test categorized `COc1ccc(/C=C(\C#N)C(=O)N2CCOCC2)cc1Br` .
A. inactive

Q. Please indicate how the test categorized COc1c2c(cc3c1C(CC(O)Cc1ccccc1)N(C)CC3)OCO2 (centres undefined) .
A. inactive

Q. Please indicate how the test categorized Cc1ccc(/C=N/NC(=O)C2COc3ccccc3O2)s1 (centres undefined) .
A. inactive

Q. Please indicate how the test categorized CCOC(=O)C1(CCOC)CCN(C(C)CCc2ccc(OC)cc2)CC1 (centres undefined) .
A. inactive

Q. Please indicate how the test categorized `O=C(COc1coc(CN2CCN(c3ccccc3F)CC2)cc1=O)Nc1ccccc1` .
A. inactive

Q. Please indicate how the test categorized COc1cc(NC(=O)CSc2ncnc3sc4c(c23)CCC(C)C4)c(C(=O)O)cc1OC (centres undefined) .
A. inactive
